As shown below, each of these compounds has a reported IC50 value.
# tested system: HLA-B5801 (Homo sapiens, UniProt P01889, A329T/C349S/D201E/D98Y/E176V/E187L/E204Q/E69T/G107R/I218V/I90N/K202T/L105A/L119I/N104I/N87E/Q89R/Q94S/R106L/R155S/R180L/R86G/S101N/S121R/S35A/S48A/T118I/V127L/V306I/V36M/Y140S/Y91M)
# experiment description: Competitive peptide binding assay, CIR-B5801
# condition details: HMy2.CIR-B5801 cells, reference Cy5-[…], class from inhibition at 5 and 15 μM, flow cytometry MFI; read-out: Binding affinity with HLA-B5801
Peptide text beside a SMILES is read from it.

# compound, IC50
rows = [
    ("CC[C@H](C)[C@H](NC(=O)CNC(=O)[C@H](CC(=O)O)NC(=O)[C@H](CCCCN)NC(=O)[C@H](CC(N)=O)NC(=O)[C@H](C)NC(=O)CN)C(=O)N[C@H](C(=O)N[C@@H](Cc1c[nH]c2ccccc12)C(=O)O)[C@@H](C)CC [Epitope Y301] (H-GANKDGIIW-OH; N-terminus and C-terminus assumed)", "< 5 µM"),
    ("C[C@H](NC(=O)[C@H](Cc1ccc(O)cc1)NC(=O)[C@H](C)NC(=O)[C@@H](N)Cc1ccccc1)C(=O)N[C@@H](CC(N)=O)C(=O)N[C@@H](CCCNC(=N)N)C(=O)N[C@@H](CC(N)=O)C(=O)N[C@@H](CCCNC(=N)N)C(=O)N[C@@H](Cc1ccccc1)C(=O)O [Epitope Y49] (H-FAYANRNRF-OH; N-terminus and C-terminus assumed)", "5 to 15 µM"),
    ("CC(C)C[C@H](NC(=O)[C@H](CCC(=O)O)NC(=O)[C@H](CCCCN)NC(=O)[C@H](Cc1ccccc1)NC(=O)[C@H](CO)NC(=O)[C@@H](N)CC(C)C)C(=O)N[C@@H](CC(C)C)C(=O)N[C@H](C(=O)N[C@@H](Cc1ccc(O)cc1)C(=O)O)C(C)C [Epitope Y142] (H-LSFKELLVY-OH; N-terminus and C-terminus assumed)", "< 5 µM"),
    ("CC[C@H](C)[C@H](N)C(=O)N[C@@H](C)C(=O)N[C@@H](CCSC)C(=O)N[C@@H](C)C(=O)N[C@@H](CS)C(=O)N[C@@H](CC(C)C)C(=O)N[C@H](C(=O)NCC(=O)N[C@@H](CC(C)C)C(=O)O)C(C)C [Epitope Y253] (H-IAMACLVGL-OH; N-terminus and C-terminus assumed)", "> 15 µM"),
]

Reference for the values: paper PMC12133982
